assay details: protein stability index of a GFP-peptide fusion (yeast GPS) (PSI 1-4); higher = more stable; sorted into four equal gates, so the index is relative within each strain
experimental context: ubr1∆
# binning rule on protein stability index: category 1: < 2; category 2: ≥ 2 and < 3; category 3: ≥ 3

Hello team, could you let me know which band the following sequence falls into: MAESLVDLEEVMDTIQE [SSN8] category 3

Hello team, could you let me know which band the following sequence falls into: LGKRINSAVNNAISNTQ [SRP54] category 3

Hello team, could you let me know which band the following sequence falls into: SQSQQKLLKEKVKLFHG [MED2] category 2

Hello team, could you let me know which band the following sequence falls into: AIQLDYSTANEYIIAAI [RPN3] category 2

Hello team, could you let me know which band the following sequence falls into: FRKIKLRVDEVQGKNLL [RPS1A] category 3

Hello team, could you let me know which band the following sequence falls into: KTSKDIAVLRSKEWFQL [FAS1] category 2

Hello team, could you let me know which band the following sequence falls into: VPPVENFPVRQWSIEIV [TAF14] category 2

Hello team, could you let me know which band the following sequence falls into: RIIRKKIFIAVVWYQRL [RRI2] category 1

Hello team, could you let me know which band the following sequence falls into: ESQQQDESLKDEATVPN [SWI3] category 3

Hello team, could you let me know which band the following sequence falls into: VLKFAAHTGATPIAGRF [RPS0A] category 2

Hello team, could you let me know which band the following sequence falls into: TPLSIKIMVAEWYLSHL [SRB8] category 2

Hello team, could you let me know which band the following sequence falls into: TKESQPTIEEDLTRVYK [FAS2] category 3

Hello team, could you let me know which band the following sequence falls into: KRGVKGVEYRLRLRISR [RPL31A] category 1

Origin of measurements: the supplement of paper PMC9732359
